Test system: isolated guinea pig gallbladder
assayName: Functional activity in isolated guinea pig gallbladder preparation
Type: cell-based
experimentalConditions: Cavia porcellus, 1 × 10^-6 M test compound; expressed as % CCK-induced maximal response; read-out: %Contraction (1 × 10^-6 M)
Below, each entry is listed with its recorded activation at 1 µM.
propertyName: activation at 1 µM (%)

{"molecule": "COc1ccc(N(C(=O)CN2C(=O)C(Cc3n[nH]c4ccccc34)(OC)C(=O)N(c3cccnc3)c3ccccc32)C(C)C)cc1 (stereo not shown)", "measuredValue": 96}
{"molecule": "COc1ccc(N(C(=O)CN2C(=O)C(Cc3n[nH]c4ccccc34)C(=O)N(c3cccs3)c3ccccc32)C(C)C)cc1 (stereo not shown)", "measuredValue": 100}
{"molecule": "COc1ccc(N(C(=O)CN2C(=O)C(Cc3coc4ccccc34)C(=O)N(c3ccccc3)c3ccccc32)C(C)C)cc1 (stereo not shown)", "measuredValue": 38}
{"molecule": "COc1ccc(N(C(=O)CN2C(=O)C(C)(Cc3cccc4ccccc34)C(=O)N(c3ccccc3)c3ccccc32)C(C)C)cc1 (stereo not shown)", "measuredValue": 44}
{"molecule": "COc1ccc(N(C(=O)CN2C(=O)C(Cc3nn(C)c4ccccc34)C(=O)N(c3ccccc3)c3ccccc32)C(C)C)cc1 (stereo not shown)", "measuredValue": 57}
{"molecule": "CC(C)N(C(=O)CN1C(=O)C(C)(CCCc2ccccc2)C(=O)N(c2ccccc2)c2ccccc21)c1ccccc1 (stereo not shown)", "measuredValue": 19}
{"molecule": "COc1ccc(N(C(=O)CN2C(=O)C(C)(CC(=O)Nc3cccc(F)c3)C(=O)N(c3ccccc3)c3ccccc32)C(C)C)cc1 (stereo not shown)", "measuredValue": 88}
{"molecule": "COc1ccc(N(C(=O)CN2C(=O)C(CC(=O)Nc3ccccc3)C(=O)N(c3ccccc3)c3ccccc32)C(C)C)cc1 (stereo not shown)", "measuredValue": 48}
{"molecule": "COc1ccc(N(C(=O)CN2C(=O)C(Cc3n[nH]c4ccccc34)C(=O)N(c3ccncc3)c3ccccc32)C(C)C)cc1 (stereo not shown)", "measuredValue": 81}
{"molecule": "CC(C)N(C(=O)CN1C(=O)C(Cc2n[nH]c3cc(F)ccc23)C(=O)N(c2ccccc2)c2ccccc21)c1ccc(OC(F)(F)F)cc1 (stereo not shown)", "measuredValue": 66}
{"molecule": "CC(C)N(C(=O)CN1C(=O)C(Cc2n[nH]c3ccccc23)C(=O)N(c2ccccc2)c2ccccc21)c1ccc(F)cc1 (stereo not shown)", "measuredValue": 99}
{"molecule": "COc1ccc(N(C(=O)CN2C(=O)C(C)(CC(=O)Nc3ccccc3)C(=O)N(c3ccc(Cl)cc3)c3ccccc32)C(C)C)cc1 (stereo not shown)", "measuredValue": 40}
{"molecule": "CC(C)N(C(=O)CN1C(=O)C(Cc2n[nH]c3cc(F)ccc23)C(=O)N(c2ccccc2)c2ccccc21)c1ccccc1 (stereo not shown)", "measuredValue": 98}

====

// values below are reported activation at 1 µM
System: isolated guinea pig gallbladder
assayName: Functional activity in isolated guinea pig gallbladder preparation
Type: cell-based
experimentalConditions: Cavia porcellus, 1 × 10^-6 M test compound; expressed as % CCK-induced maximal response; read-out: %Contraction (1 × 10^-6 M)

{"compound": "CC(C)N(C(=O)CN1C(=O)C(C)(CC=Cc2ccccc2)C(=O)N(c2ccccc2)c2ccccc21)c1ccccc1 (centres unmarked)", "activation at 1 µM": "10%"}
{"compound": "COc1cccc(N(C(=O)CN2C(=O)C(Cc3n[nH]c4ccccc34)C(=O)N(c3ccccc3)c3ccccc32)C(C)C)c1 (centres unmarked)", "activation at 1 µM": "92%"}
{"compound": "COc1ccc(N(C(=O)CN2C(=O)C(C)(Cc3nn(C)c4ccccc34)C(=O)N(c3ccccc3)c3ccccc32)C(C)C)cc1 (centres unmarked)", "activation at 1 µM": "57%"}
{"compound": "CC(C)N(C(=O)CN1C(=O)C(Cc2n[nH]c3ccccc23)C(=O)N(c2ccccc2)c2ccccc21)c1ccccc1 (centres unmarked)", "activation at 1 µM": "93%"}
{"compound": "COc1ccc(N(C(=O)CN2C(=O)C(Cc3n[nH]c4ccccc34)C(=O)N(c3ccccc3)c3cc(F)c(F)cc32)C(C)C)cc1 (centres unmarked)", "activation at 1 µM": "78%"}
{"compound": "COc1ccc(N(C(=O)CN2C(=O)C(Cc3nn(Cc4ccccc4)c4ccccc34)(OC)C(=O)N(c3ccccc3)c3ccccc32)C(C)C)cc1 (centres unmarked)", "activation at 1 µM": "16%"}
{"compound": "COc1ccc(N(C(=O)CN2C(=O)C(Cc3cc(C)n[nH]3)C(=O)N(c3ccccc3)c3ccccc32)C(C)C)cc1 (centres unmarked)", "activation at 1 µM": "21%"}
{"compound": "COc1ccc(N(C(=O)CN2C(=O)C(C)(Cc3coc4ccccc34)C(=O)N(c3ccccc3)c3ccccc32)C(C)C)cc1 (centres unmarked)", "activation at 1 µM": "53%"}
{"compound": "CC(C)N(C(=O)CN1C(=O)C(Cc2n[nH]c3ccccc23)C(=O)N(c2ccccc2)c2ccccc21)c1ccc2c(c1)OCO2 (centres unmarked)", "activation at 1 µM": "78%"}
{"compound": "COc1ccc(N(C(=O)CN2C(=O)C(Cc3n[nH]c4ccccc34)C(=O)N(c3cccc(F)c3)c3ccccc32)C(C)C)cc1 (centres unmarked)", "activation at 1 µM": "97%"}
{"compound": "COc1ccc(N(C(=O)CN2C(=O)C(Cc3nccn3-c3ccccc3)C(=O)N(c3ccccc3)c3ccccc32)C(C)C)cc1 (centres unmarked)", "activation at 1 µM": "6%"}
{"compound": "CC(C)N(C(=O)CN1C(=O)C(C)(CC(N)=O)C(=O)N(c2ccccc2)c2ccccc21)c1ccccc1 (centres unmarked)", "activation at 1 µM": "6%"}
{"compound": "COc1ccc(N(C(=O)CN2C(=O)C(Cc3ccc4ccccc4c3)C(=O)N(c3ccccc3)c3ccccc32)C(C)C)cc1 (centres unmarked)", "activation at 1 µM": "19%"}
{"compound": "CC(C)N(C(=O)CN1C(=O)C(Cc2n[nH]c3ccccc23)C(=O)N(c2cccnc2)c2ccccc21)c1ccccc1 (centres unmarked)", "activation at 1 µM": "85%"}
{"compound": "CC(=O)n1nc(CC2C(=O)N(CC(=O)N(c3ccc(F)cc3)C(C)C)c3ccccc3N(c3ccccc3)C2=O)c2ccc(F)cc21 (centres unmarked)", "activation at 1 µM": "67%"}
{"compound": "COc1ccc(N(C(=O)CN2C(=O)C(Cc3c[nH]c4ccccc34)C(=O)N(c3ccccc3)c3ccccc32)C(C)C)cc1 (centres unmarked)", "activation at 1 µM": "61%"}
{"compound": "CC(C)N(C(=O)CN1C(=O)C(C)(CC(=O)Nc2ccccc2)C(=O)N(c2ccccc2)c2ccccc21)c1ccccc1 (centres unmarked)", "activation at 1 µM": "80%"}
{"compound": "COc1ccc(N(C(=O)CN2C(=O)C(Cc3cccc4ccccc34)C(=O)N(c3ccccc3)c3ccccc32)C(C)C)cc1 (centres unmarked)", "activation at 1 µM": "47%"}
{"compound": "Cc1ccc(N(C(=O)CN2C(=O)C(Cc3n[nH]c4cc(F)ccc34)C(=O)N(c3ccccc3)c3ccccc32)C(C)C)cc1 (centres unmarked)", "activation at 1 µM": "94%"}
{"compound": "CC(C)(C)N(C(=O)CN1C(=O)C(Cc2n[nH]c3ccccc23)C(=O)N(c2ccccc2)c2ccccc21)c1ccccc1 (centres unmarked)", "activation at 1 µM": "88%"}

====

Overview of recorded activation at 30 µM for various molecules
Test system: isolated guinea pig gallbladder
assayName: Functional activity in isolated guinea pig gallbladder preparation
Format: cell-based
experimentalConditions: Cavia porcellus, 3 × 10^-5 M test compound; expressed as % CCK-induced maximal response; read-out: % Contraction (3 × 10^-5 M)

{"molecule": "CC(C)N(C(=O)CN1C(=O)C(Cc2n[nH]c3ccccc23)C(=O)N(c2ccccc2)c2ccccc21)c1ccc(C(F)(F)F)cc1 (stereo not drawn) [Example 52]", "unit": "%", "activation at 30 µM": 96}
{"molecule": "COc1ccc(N(C(=O)CN2C(=O)C(C)(Cc3n[nH]c4ccccc34)C(=O)N(c3cccnc3)c3ccccc32)C(C)C)cc1 (stereo not drawn) [Example 74]", "unit": "%", "activation at 30 µM": 88}
{"molecule": "CC(C)N(C(=O)CN1C(=O)C(Cc2n[nH]c3cc(F)ccc23)C(=O)N(c2ccccc2)c2ccccc21)c1ccc(F)cc1 (stereo not drawn) [Example 63]", "unit": "%", "activation at 30 µM": 96}

====

Below: a set of entries, each annotated with reported activation at 1 µM.
System: isolated guinea pig gallbladder
assayName: Functional activity in isolated guinea pig gallbladder preparation
Assay type: cell-based
experimentalConditions: Cavia porcellus, 1 × 10^-6 M test compound; expressed as % CCK-induced maximal response; read-out: %Contraction (1 × 10^-6 M)
propertyName: activation at 1 µM

{"molecule": "COc1ccc(N(C(=O)CN2C(=O)C(Cc3noc4ccccc34)C(=O)N(c3ccccc3)c3ccccc32)C(C)C)cc1 (stereo not shown)", "measuredValue": "92%"}
{"molecule": "COc1ccc(N(C(=O)CN2C(=O)C(Cc3csc4ccccc34)C(=O)N(c3ccccc3)c3ccccc32)C(C)C)cc1 (stereo not shown)", "measuredValue": "46%"}
{"molecule": "COc1ccc(N(C(=O)CN2C(=O)C(Cc3n[nH]c4ccccc34)C(=O)N(c3cccnc3)c3cc(F)ccc32)C(C)C)cc1 (stereo not shown)", "measuredValue": "97%"}
{"molecule": "COc1ccc(N(C(=O)CN2C(=O)C(Cc3n[nH]c4ccccc34)C(=O)N(c3ccccc3)c3ccccc32)C2CCCC2)cc1 (stereo not shown)", "measuredValue": "96%"}
{"molecule": "CC(C)N(C(=O)CN1C(=O)C(C)(CC(=O)N(C)c2ccccc2)C(=O)N(c2ccccc2)c2ccccc21)c1ccccc1 (stereo not shown)", "measuredValue": "9%"}
{"molecule": "COc1ccc(N(C(=O)CN2C(=O)C(CC(=O)Nc3ccccc3)(OC)C(=O)N(c3ccccc3)c3ccccc32)C(C)C)cc1 (stereo not shown)", "measuredValue": "80%"}
{"molecule": "COc1ccc(N(C(=O)CN2C(=O)C(C)(Cc3n[nH]c4ccccc34)C(=O)N(c3cccnc3)c3ccccc32)C(C)C)cc1 (stereo not shown) [Example 74]", "measuredValue": "86%"}
{"molecule": "COc1ccc(N(C(=O)CN2C(=O)C(Cc3n[nH]c4ccccc34)C(=O)N(c3cccnc3)c3ccccc32)C(C)C)cc1 (stereo not shown)", "measuredValue": "106%"}
{"molecule": "COc1ccc(N(C(=O)CN2C(=O)C(CN(C)C(=O)c3ccccc3)C(=O)N(c3ccccc3)c3ccccc32)C(C)C)cc1 (stereo not shown)", "measuredValue": "3%"}
{"molecule": "COc1ccc(N(C(=O)CN2C(=O)C(Cc3n[nH]c4ccccc34)C(=O)N(c3ccccn3)c3ccccc32)C(C)C)cc1 (stereo not shown)", "measuredValue": "75%"}
{"molecule": "COc1ccc(N(C(=O)CN2C(=O)C(C)(Cc3csc4ccccc34)C(=O)N(c3ccccc3)c3ccccc32)C(C)C)cc1 (stereo not shown)", "measuredValue": "10%"}
{"molecule": "COc1ccc(N(C(=O)CN2C(=O)C(C)(Cc3n[nH]c4ccccc34)C(=O)N(c3ccccc3)c3ccccc32)C(C)C)cc1 (stereo not shown)", "measuredValue": "75%"}
{"molecule": "CC(C)N(C(=O)CN1C(=O)C(Cc2n[nH]c3ccccc23)C(=O)N(c2ccccc2)c2ccccc21)c1ccc(C(F)(F)F)cc1 (stereo not shown)", "measuredValue": "70%"}
